experimentNotes: Apparent clearance in mouse at 1 mg/kg, iv
Type: ADME, organism-based
testSettings: in vivo, read-out: CL(app) (converted)
reportedEndpoint: clearance (mL/min/kg)
Answer in mL/min/kg, number only, no unit symbol.

# input compound: CNC(=O)c1cncc(-c2cnc(Cl)c(NS(=O)(=O)c3ccccc3)c2)c1 ; wanted: its clearance 51.7

---

experimentNotes: Half life in mouse at 1 mg/kg, iv
Type: ADME, organism-based
testSettings: in vivo
reportedEndpoint: half-life (h)
Return type: number; implicit unit h.

Would you kindly share the measured half-life for CNC(=O)c1cncc(-c2cnc(Cl)c(NS(=O)(=O)c3ccccc3)c2)c1 ? 2.7
